System: P. falciparum stage V gametocytes
Parameters: BacTiter-Glo ATP luminescence viability of purified stage V gametocytes in 384-well plates, per cent inhibition versus DMSO
Test Context: 48 h, 5 µM; inhibitor
Hit rate of the full screen: of about 13,000 compounds, about 3,200 (25%) showed an effect of 50% or more. Some of the results follow.
Value Kind: % Inhibition

- Compound: "CCCCc1ccc2[nH]c(NC(=O)OC)nc2c1 [TCMDC-131798]"
  % Inhibition: "-12.96%"
- Compound: "CC(C)CNCc1ccc(-c2cccc(CN(C(=O)Nc3ccccc3)C3CCN(Cc4ccccc4)CC3)c2)cc1 [TCMDC-140585]"
  % Inhibition: "74.29%"
- Compound: "COc1ccc(S(=O)(=O)Nc2cc(Br)cc3c2OCCC3)cc1N1CCN(C(=O)C(Cl)(Cl)Cl)CC1 [TCMDC-139661]"
  % Inhibition: "-19.32%"
- Compound: "C[C@@H]1C[C@@H]([C@H](O)CC2CC(=O)NC(=O)C2)C(=O)[C@@H](C)C1 [TCMDC-125838]"
  % Inhibition: "50.08%"
- Compound: "CCOC(=O)c1ccc(NC(=O)N[C@@H](Cc2ccc(O)cc2)C(=O)NC2CCN(Cc3ccc4c(c3)OCO4)CC2)cc1 [TCMDC-135257]"
  % Inhibition: "-19.76%"

Item Cc1cccc2nc(-c3ccc(-c4ccc(NC(=O)CN5CCN(C)CC5)cc4)s3)[nH]c12 [TCMDC-136987] with P. falciparum stage V gametocytes - % Inhibition? -6.57%

Repeat for the following compound: Cc1ccc2c(O)c([N+](=O)[O-])c(=O)[nH]c2c1 [TCMDC-131383] 0.04547%

Repeat for the following compound: Fc1ccc2nc(-c3ccc(-c4ccc(CN5CCCCC5)cc4)s3)[nH]c2c1 [TCMDC-133897] -55.88%

Repeat for the following compound: COc1ccc(NS(=O)(=O)c2ccccc2Br)cc1N1CCN(C)CC1 [TCMDC-139092] -23.57%

Repeat for the following compound: COc1cccc(-c2cc(C(=O)Nc3ccc4nc(-c5ccccc5)[nH]c4c3)[nH]n2)c1 [TCMDC-134319] 8.642%

---

System: P. falciparum stage V gametocytes
Design: BacTiter-Glo ATP luminescence viability of purified stage V gametocytes in 384-well plates, per cent inhibition versus DMSO
Test Context: 48 h, 5 µM; inhibitor
Out of some 13,000 compounds screened, about 3,200 (25%) showed an effect of 50% or more. This is one part of the list.
Value Kind: % Inhibition (%)
Kindly answer with a numeric value in %, unit omitted.

- Molecule: "CCCc1cc(Cc2cnc(N)nc2N)cc(OC)c1OC"
  % Inhibition / %: 0.312

GET /values?readout=% Inhibition&item= Cc1ccc(NC(=O)NCCCCCN2CCC(c3c[nH]c4ccccc34)CC2)cc1I 66.97

Repeat for the following molecule: CCN1CCN(c2ccc(NC(=O)c3cc4c(C)nn(-c5ccccc5)c4s3)cc2C)CC1 8.854

Repeat for the following molecule: CN(C)CCNc1cc(-c2ccc3ccccc3c2)nc2ccccc12 3.28

Repeat for the following molecule: C=CCOC(=O)N1CCC(CNCc2cccc(-c3ccc(-c4nc5cccc(C)c5[nH]4)s3)c2)C1.O=C(O)C(F)(F)F (centres unmarked) 63.05

Repeat for the following molecule: CC(=O)N(Cc1ccc(CC(C)NCCc2cccc(Cl)c2)cc1)Cc1ccc(CC(C)NCCc2cccc(Cl)c2)cc1 (centres unmarked) 112.1

Repeat for the following molecule: COc1ccc2nccc([C@@H](O)CN3CCC(NCc4cc5ccccc5nn4)CC3)c2c1 -3.79

Repeat for the following molecule: COc1ccc2nccc([C@@H](O)CN3CCC(NCC(O)Cc4ccccc4)CC3)c2c1 (some centres unmarked) 11.24

Repeat for the following molecule: COc1ccc2nccc([C@@H](O)CN3CCC(NCc4ccc5cccc(O)c5n4)CC3)c2c1 -19.01

---

System: P. falciparum stage V gametocytes
Set-up: BacTiter-Glo ATP luminescence viability of purified stage V gametocytes in 384-well plates, per cent inhibition versus DMSO
Test Context: 48 h, 5 µM; inhibitor
About 3,200 (25%) of roughly 13,000 compounds showed an effect of 50% or more. The list shows a part of the results.
Listing: % Inhibition of selected molecules
Kindly answer with a numeric value in %, unit omitted.

- Molecule: "COc1ccc(NC(=O)NC2CCN(CCCCCNC(=O)/C=C/c3ccc(Cl)c(Cl)c3)CC2)cc1"
  Target Desc: "P. falciparum stage V gametocytes"
  Value Kind: "% Inhibition"
  Measure Unit: "%"
  Value: -22.99
- Molecule: "CN(CCCCCN1CCC(NC(=O)Nc2ccc(Oc3ccccc3)cc2)C1)C(=O)/C=C/c1ccc(Cl)c(Cl)c1 (centres unmarked)"
  Target Desc: "P. falciparum stage V gametocytes"
  Value Kind: "% Inhibition"
  Measure Unit: "%"
  Value: -7.519
- Molecule: "O=C(/C=C/c1ccc(Cl)c(Cl)c1)NCCCCCN1CCC(NC(=O)Nc2ccc(OC(F)F)cc2)CC1"
  Target Desc: "P. falciparum stage V gametocytes"
  Value Kind: "% Inhibition"
  Measure Unit: "%"
  Value: -13.06
- Molecule: "O=C(NCCCCCN1CCC(c2c[nH]c3ccccc23)CC1)c1ccc(-c2cccnc2)cc1"
  Target Desc: "P. falciparum stage V gametocytes"
  Value Kind: "% Inhibition"
  Measure Unit: "%"
  Value: 113.1
- Molecule: "NC1CCN(CCNCc2cccc(-c3ccc(-c4nc5ccc(F)cc5[nH]4)cc3)c2)C1 (centres unmarked)"
  Target Desc: "P. falciparum stage V gametocytes"
  Value Kind: "% Inhibition"
  Measure Unit: "%"
  Value: 75.97

From here, focus on the item given below.
GET /values?readout=% Inhibition&item= COc1cc(C(=O)N2CCC(CCN3CCC4(CC3)CN(S(C)(=O)=O)c3ccccc34)CC2Cc2ccc(Cl)c(Cl)c2)cc(OC)c1OC (centres unmarked) 50.03

---

Listing: % Inhibition of selected compounds
Tested on: P. falciparum stage V gametocytes
Design: BacTiter-Glo ATP luminescence viability of purified stage V gametocytes in 384-well plates, per cent inhibition versus DMSO
Test Context: 48 h, 5 µM; inhibitor
About 3,200 (25%) of roughly 13,000 compounds showed an effect of 50% or more. Some of the results follow.
Kindly answer with a numeric value in %, unit omitted.

Worked examples, 5 compounds total:
- Compound: "COc1ccc(CNC2CCN(C)CC2)cc1-c1ccc(S(=O)(=O)NCC2CCCO2)s1 (stereo not drawn)"
  Target Desc: "P. falciparum stage V gametocytes"
  Value Kind: "% Inhibition"
  Value: 30.18
- Compound: "Cc1cccc2nc(C(=O)Nc3nc(CN4CCC(C)CC4)cs3)cn12"
  Target Desc: "P. falciparum stage V gametocytes"
  Value Kind: "% Inhibition"
  Value: 11.88
- Compound: "COC(=O)Nc1cc(C(F)(F)F)ccc1N1CCC(CNS(=O)(=O)c2ccc(OC)cc2)CC1"
  Target Desc: "P. falciparum stage V gametocytes"
  Value Kind: "% Inhibition"
  Value: 29.26
- Compound: "Cc1nc(N)nc(N)c1-c1cc(Cl)c(N)c(Cl)c1"
  Target Desc: "P. falciparum stage V gametocytes"
  Value Kind: "% Inhibition"
  Value: -88.48
- Compound: "Cc1ccc2ccccc2c1CCCON1C(N)=NC(N)=NC1(C)C"
  Target Desc: "P. falciparum stage V gametocytes"
  Value Kind: "% Inhibition"
  Value: 22.75

From here, focus on the item given below.
GET /values?readout=% Inhibition&item= Cc1ccc(NC(=O)NC2CCN(CCCCCNC(=O)/C=C/c3ccc(Cl)c(Cl)c3)CC2)cc1 -0.844

---

Tested on: P. falciparum stage V gametocytes
Set-up: BacTiter-Glo ATP luminescence viability of purified stage V gametocytes in 384-well plates, per cent inhibition versus DMSO
Test Context: 48 h, 5 µM; inhibitor
Among all 13,000 compounds or so, about 3,200 (25%) showed an effect of 50% or more. This is one part of the list.
Value Kind: % Inhibition (%)
Kindly answer with a numeric value in %, unit omitted.

Worked examples, 2 compounds total:
- Compound: "O=C(Nc1ccnc(N2CCCN(Cc3cccc(O)c3)CC2)c1)c1ccc(F)cc1 [TCMDC-134961]"
  Target Desc: "P. falciparum stage V gametocytes"
  Measure Unit: "%"
  % Inhibition: -9.577
- Compound: "Nc1nc(N)c2c3c(ccc2n1)CCC3 [TCMDC-137720]"
  Target Desc: "P. falciparum stage V gametocytes"
  Measure Unit: "%"
  % Inhibition: -10.07

GET /values?readout=% Inhibition&item= CN(CCCCNC(=O)/C=C/c1ccccc1)C1CC2(CCN(C(=O)OC(C)(C)C)CC2)c2ccccc21 (stereo not drawn) [TCMDC-132882] -12.8

---

System: P. falciparum stage V gametocytes
Design: BacTiter-Glo ATP luminescence viability of purified stage V gametocytes in 384-well plates, per cent inhibition versus DMSO
Test Context: 48 h, 5 µM; inhibitor
The whole screen tested about 13,000 compounds, of which about 3,200 (25%) showed an effect of 50% or more. Some of the results follow.
Listing: % Inhibition of selected compounds
Kindly answer with a numeric value in %, unit omitted.

Worked examples, 4 compounds total:
- Compound: "CC1CCCN1Cc1cccc(-c2ccc(C(=O)NCCOc3ccccc3)s2)c1 (stereo not shown)"
  Target Desc: "P. falciparum stage V gametocytes"
  Measure Unit: "%"
  % Inhibition: -6.821
- Compound: "COc1cc(C)nc2ccc(NC(=O)c3ccc(C(=O)Nc4ccc5nc(C)cc(OC)c5c4)cc3)cc12"
  Target Desc: "P. falciparum stage V gametocytes"
  Measure Unit: "%"
  % Inhibition: 14.93
- Compound: "O=C(Nc1cccc(Cl)c1Cl)NC1CCN(Cc2cccc(O)c2)CC1"
  Target Desc: "P. falciparum stage V gametocytes"
  Measure Unit: "%"
  % Inhibition: -12.42
- Compound: "Cc1cc(N)c2cc(NC(=O)c3cccc4ccccc34)ccc2n1"
  Target Desc: "P. falciparum stage V gametocytes"
  Measure Unit: "%"
  % Inhibition: 63.27

GET /values?readout=% Inhibition&item= CS(=O)(=O)c1ccccc1CNC(=O)c1ccc(-c2ccc(-c3nc4cc(C(F)(F)F)ccc4[nH]3)s2)cc1 9.09

Repeat for the following compound: c1ccc(C2CCC(N3CCC(N4CCCC4)CC3)CC2)cc1 (stereo not shown) 3.112

Repeat for the following compound: COc1cc(C)nc2ccc(NC(=O)Nc3cccc4ccccc34)cc12 -27.18
